Test system: SF-539 CNS
Test: NCI tumour cell line growth inhibition, 48 h
QUANTITY KIND: TGI (µM)
Note: unit µM is implicit; provide only the numeric part.

COc1ccc(OC)c(C(=O)c2oc3ccc(Br)cc3c2N)c1
0.712
Cc1nc2ccccc2n1C(=O)c1c(F)c(F)c(F)c(F)c1F
29.5
CC(C)c1ccc(C(c2ccc(OCC(=O)O)cc2)c2ccc(C(C)C)cc(=O)c2O)c(O)c(=O)c1
31.3
COc1cc2c3c(n(CCNCCCNCCn4c5c(c6cc(OC)c(OC)cc6c4=O)C(=O)c4ccccc4-5)c(=O)c2cc1OC)-c1ccccc1C3=O
15.5

--- query ---
# TGI (molecule: `Cc1ccc(/C=C2\CCC/C(=C\c3ccc(O)c(CN4CCCCC4)c3)C2=O)cc1` ) is 26.6
